Where these numbers come from: patent US7998965B2

- ASSAYED_SYSTEM: purified recombinant human Aggrecanase-1 (rAgg1) (Homo sapiens)
- Sequence (O75173 213-837): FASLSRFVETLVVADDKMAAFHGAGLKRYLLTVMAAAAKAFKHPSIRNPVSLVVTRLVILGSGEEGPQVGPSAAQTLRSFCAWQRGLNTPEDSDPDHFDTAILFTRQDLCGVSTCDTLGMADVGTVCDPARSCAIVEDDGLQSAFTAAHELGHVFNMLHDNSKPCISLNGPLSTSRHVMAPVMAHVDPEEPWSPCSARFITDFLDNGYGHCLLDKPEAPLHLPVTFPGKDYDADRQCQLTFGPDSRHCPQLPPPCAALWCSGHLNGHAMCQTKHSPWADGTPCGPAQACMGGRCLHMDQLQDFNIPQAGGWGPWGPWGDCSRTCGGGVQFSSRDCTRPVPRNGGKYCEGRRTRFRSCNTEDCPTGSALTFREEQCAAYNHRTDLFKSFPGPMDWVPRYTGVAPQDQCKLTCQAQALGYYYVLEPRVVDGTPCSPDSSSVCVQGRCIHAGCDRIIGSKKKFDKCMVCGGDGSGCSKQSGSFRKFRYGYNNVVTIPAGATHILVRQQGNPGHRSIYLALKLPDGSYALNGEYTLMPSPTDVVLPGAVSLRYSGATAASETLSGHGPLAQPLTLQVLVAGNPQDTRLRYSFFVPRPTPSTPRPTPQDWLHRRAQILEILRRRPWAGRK
- PROTOCOL: In vitro fluorescence screen for Aggrecanase-1 inhibitors
- Assay type: biochemical
- PARTICULARS: Table 1; enzyme not given, column follows Agg1 IC50; read-out: Ki
READOUT_LABEL: pKi
Convention used: pKi is expressed as -log10 of the molar concentration.

Cc1cccc(CNC(=O)[C@H](CCC(=O)O)NC(=O)c2ccc(-c3ccccc3)cc2)c1 [Example 8O]: 7.09
O=C(O)CC[C@H](NC(=O)c1ccc(-c2ccccc2)cc1)C(=O)NCc1cccc(I)c1 [Example 8JJ]: 7.48
CC(C)(Cc1ccc(F)cc1)NC(=O)[C@H](CCC(=O)O)NC(=O)c1ccc(-c2ccccc2)cc1 [Example 8OO]: 8.22
C=Cc1ccc(CNC(=O)[C@H](CCC(=O)O)NC(=O)c2ccc(-c3ccccc3)cc2)cc1 [Example 10R]: 6.73

query: Identify the reported pKi for the following entry. COc1cc(CNC(=O)[C@H](CCC(=O)O)NC(=O)c2ccc3c(c2)Cc2ccccc2-3)cc(OC)c1OC [Example 8KKKK]
result: 8.40

query: Give the measured pKi for O=C(O)CC[C@H](NC(=O)c1ccc(-c2ccccc2)cc1)C(=O)NCc1ccc(F)c(F)c1 [Example 8AAA]
result: 7.36

query: Query pKi for COc1cc(CNC(=O)[C@H](CCC(=O)O)NC(=O)c2ccc3c(c2)C(=O)c2ccccc2-3)cc(OC)c1OC [Example 8MMMM]
result: 7.24

query: Identify pKi associated with the compound CCC(C)(C)NC(=O)[C@H](CCC(=O)O)NC(=O)c1ccc(-c2ccccc2)cc1 [Example 8MM]
result: 6.90

query: Give reported pKi value for COc1cccc(CNC(=O)[C@H](CCC(=O)O)NC(=O)c2ccc(-c3ccccc3)cc2)c1 [Example 8Q]
result: 7.51
